Entry source: patent US6905706B2

Experiment: Effect of co-administered extracts on the pharmacokinetics of theophylline in rats
Conditions: male, Wistar, rat, in vivo, Concentration of Theophylline in Rat Serum, Mean, Group 3 (Jarsin 300 pretreatment 3 days); aminophylline 240 mg/kg p.o.; 240 min; mean n=6
TEST_READOUT: concentration at 240 min (ng/mL)
Answer in ng/mL, number only, no unit symbol.

Report measured concentration at 240 min; entry is Cn1c(=O)c2[nH]cnc2n(C)c1=O [Theophylline, 1,3-dimethylxantin] 16500

----------
Assay: Effect of co-administered extracts on the pharmacokinetics of theophylline in rats
Details: male, Wistar, rat, in vivo, Concentration of Theophylline in Rat Serum, Mean, Group 3 (Jarsin 300 pretreatment 3 days); aminophylline 240 mg/kg p.o.; 480 min; mean n=6
TEST_READOUT: concentration at 480 min (ng/mL)
All answers are understood in ng/mL, so give the number only.

Tell me its concentration at 480 min given Cn1c(=O)c2[nH]cnc2n(C)c1=O [Theophylline, 1,3-dimethylxantin] as the entry. 9280

----------
Experiment: Effect of co-administered extracts on the pharmacokinetics of theophylline in rats
Details: male, Wistar, rat, in vivo, 240 mg/kg, Concentration of Theophylline in Rat Serum, Mean, Group 1 (water control); aminophylline 240 mg/kg p.o.; 480 min; mean n=6
TEST_READOUT: concentration at 480 min (µg/mL)
Enter your answer as a number in µg/mL; do not include the unit.

Give concentration at 480 min for Cn1c(=O)c2[nH]cnc2n(C)c1=O [Theophylline, 1,3-dimethylxantin] 51

----------
Test: Effect of co-administered extracts on the pharmacokinetics of theophylline in rats
Details: male, Wistar, rat, in vivo, po, Cmax of Theophylline, Group 2 (CRE pretreatment); rats; single series
Experimental: Carpediol spissum (Batch No Ex 20404); Swedish Herbal Institute, Gothenburg, Sweden) as described above in Example 1. […] Dosage and Administration—An appropriate amount of herbal extract was dissolved in distilled water and given at 10:00-10:30 am by oral gavage. […] Blood samples from rats receiving the carrier only were also analyzed. […]
TEST_READOUT: Cmax
Be sure to follow the number with its unit.

Determine its reported Cmax: Cn1c(=O)c2[nH]cnc2n(C)c1=O [Theophylline, 1,3-dimethylxantin] 158 µg/mL

----------
Assay: Effect of co-administered extracts on the pharmacokinetics of theophylline in rats
Conditions: male, Wistar, rat, in vivo, po, 240 mg/kg, AUC0-∞ of Theophylline, Mean, Group 3 (Jarsin 300 pretreatment); rats; mean of 6 series
TEST_READOUT: AUC(0-inf) (µg·h/mL)
Kindly answer with a numeric value in µg·h/mL, unit omitted.

Report AUC(0-inf) for Cn1c(=O)c2[nH]cnc2n(C)c1=O [Theophylline, 1,3-dimethylxantin] 214

----------
Assay: Effect of co-administered extracts on the pharmacokinetics of theophylline in rats
Settings: male, Wistar, rat, in vivo, 240 mg/kg, Concentration of Theophylline in Rat Serum, Mean, Group 1 (water control); aminophylline 240 mg/kg p.o.; 240 min; mean n=6
TEST_READOUT: concentration at 240 min (µg/mL)
Write the value in µg/mL as a bare number.

Item Cn1c(=O)c2[nH]cnc2n(C)c1=O [Theophylline, 1,3-dimethylxantin] : provide concentration at 240 min 104

----------
Experiment: Effect of co-administered extracts on the pharmacokinetics of theophylline in rats
Conditions: male, Wistar, rat, in vivo, po, t1/2 of Theophylline, Mean, Group 3 (Jarsin 300 pretreatment); rats; mean of 6 series (column A)
TEST_READOUT: half-life (min)
Numbers only here, please. The scale is min.

Dear colleague, please send me the reported half-life for Cn1c(=O)c2[nH]cnc2n(C)c1=O [Theophylline, 1,3-dimethylxantin] when you can. 213

----------
Experiment: Effect of co-administered extracts on the pharmacokinetics of theophylline in rats
Conditions: male, Wistar, rat, in vivo, Concentration of Theophylline in Rat Serum, Mean, Group 2 (CRE pretreatment 3 days); aminophylline 240 mg/kg p.o.; 120 min; mean n=6
TEST_READOUT: concentration at 120 min (µg/mL)
Provide the reading as a plain figure in µg/mL.

Indicate its recorded concentration at 120 min; the molecule in question is Cn1c(=O)c2[nH]cnc2n(C)c1=O [Theophylline, 1,3-dimethylxantin] 130

----------
Test: Effect of co-administered extracts on the pharmacokinetics of theophylline in rats
Details: male, Wistar, rat, in vivo, Concentration of Theophylline in Rat Serum, Mean, Group 3 (Jarsin 300 pretreatment 3 days); aminophylline 240 mg/kg p.o.; 60 min; mean n=6
TEST_READOUT: concentration at 60 min (ng/mL)
Respond with the bare value in ng/mL.

Give the reported value of concentration at 60 min for this record: Cn1c(=O)c2[nH]cnc2n(C)c1=O [Theophylline, 1,3-dimethylxantin] 41600

----------
Assay: Effect of co-administered extracts on the pharmacokinetics of theophylline in rats
Conditions: male, Wistar, rat, in vivo, po, 240 mg/kg, t1/2 of Theophylline, Mean, Group 3 (Jarsin 300 pretreatment); rats; mean of 6 series (column A)
Experimental: Carpediol spissum (Batch No Ex 20404); Swedish Herbal Institute, Gothenburg, Sweden) as described above in Example 1. […] Dosage and Administration—An appropriate amount of herbal extract was dissolved in distilled water and given at 10:00-10:30 am by oral gavage. […] Blood samples from rats receiving the carrier only were also analyzed. […]
TEST_READOUT: half-life (h)
Kindly provide the numeric value in h only, without the unit symbol.

# return recorded half-life for entry Cn1c(=O)c2[nH]cnc2n(C)c1=O [Theophylline, 1,3-dimethylxantin] 3.55

----------
Experiment: Effect of co-administered extracts on the pharmacokinetics of theophylline in rats
Conditions: male, Wistar, rat, in vivo, 240 mg/kg, Concentration of Theophylline in Rat Serum, Mean, Group 1 (water control); aminophylline 240 mg/kg p.o.; 15 min; mean n=6
TEST_READOUT: concentration at 15 min (µg/mL)
Answer with a number only, understood to be in µg/mL.

Specify reported concentration at 15 min for the molecule shown: Cn1c(=O)c2[nH]cnc2n(C)c1=O [Theophylline, 1,3-dimethylxantin] 163

----------
Assay: Effect of co-administered extracts on the pharmacokinetics of theophylline in rats
Conditions: male, Wistar, rat, in vivo, 240 mg/kg, Concentration of Theophylline in Rat Serum, Mean, Group 1 (water control); aminophylline 240 mg/kg p.o.; 360 min; mean n=6
Protocol: Carpediol spissum (Batch No Ex 20404); Swedish Herbal Institute, Gothenburg, Sweden) as described above in Example 1. […] Dosage and Administration—An appropriate amount of herbal extract was dissolved in distilled water and given at 10:00-10:30 am by oral gavage. […] Blood samples from rats receiving the carrier only were also analyzed. […]
TEST_READOUT: concentration at 360 min (µg/mL)
Hi! Could you send only the number? It should be in µg/mL, unit omitted.

Report concentration at 360 min, nothing else, for this compound: Cn1c(=O)c2[nH]cnc2n(C)c1=O [Theophylline, 1,3-dimethylxantin] 58.5

----------
Assay: Effect of co-administered extracts on the pharmacokinetics of theophylline in rats
Settings: male, Wistar, rat, in vivo, po, Cmax of Theophylline, Mean, Group 3 (Jarsin 300 pretreatment); rats; mean of 6 series (column A)
TEST_READOUT: Cmax

Report Cmax, nothing else, for this compound: Cn1c(=O)c2[nH]cnc2n(C)c1=O [Theophylline, 1,3-dimethylxantin] 43900 ng/mL
